This collection of values is drawn from the supplement of paper PMC10567573.

B1: SMG5 (parent)
chain: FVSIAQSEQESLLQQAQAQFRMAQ

variants of: B1; experiment: protein stability index of a GFP-peptide fusion (GPS, HEK-293T) (PSI 1-6); higher = more stable; conditions: c terminus: a fixed tail appended;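 also: lentivirally expressed fusions sorted by FACS into six bins by GFP to DsRed ratio, PSI derived from sequencing read proportions per bin multiplied by bin number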
For each entry below, report its protein stability index value.
Please reply with the value in numeric form only.

Request the reported protein stability index associated with FVSIAQSEQESLLWQAQAQFRMAQ [Q14W]
2.52

Data request, read-out protein stability index, for FVSIAQSEQESPLQQAQAQFRMAQ [L12P]
2.48

Using the record for FVSIAQSEQESLLQQAQAQLRMAQ [F20L] , report its protein stability index.
2.08

Requested read-out: protein stability index. Entry: FVSIAQSEQESLLQQAQAQFRMAE [Q24E]
2.74

Could you tell me which protein stability index is on file for FVSIAQSEQESWLQQAQAQFRMAQ [L12W] ?
1.75

Fill blank: measured protein stability index of the variant FVSIAQSEEESLLQQAQAQFRMAQ [Q9E] is ____.
2.25
